system: T1, Human CD137 ECD (human)
T1 construct: also called 4-1BB
T1 sequence (chain, as listed by the source limits assumed): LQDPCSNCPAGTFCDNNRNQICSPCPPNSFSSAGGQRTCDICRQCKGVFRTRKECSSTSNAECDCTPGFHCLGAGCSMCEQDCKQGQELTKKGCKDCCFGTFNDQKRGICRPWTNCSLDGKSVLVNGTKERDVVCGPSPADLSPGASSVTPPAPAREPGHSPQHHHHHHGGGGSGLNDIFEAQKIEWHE
method.summary: SPR, vs parent H183/L072
readout.label: fold change of affinity (fold)
The response must be a number in fold with no trailing unit.

Field: example entries. Status: answers known.
{"binder": "dBBDu183H S99G / dBBDu072L (antibody, name in Kabat numbering, V domains shown, as m1, one VH change) VH: QVQLVESGGGLVQPGRSLRLSCAASGFTFSNAWMHWVRQAPGKGLEWVAQIKDKGNAYAAYYAPSVKGRFTISRDDSKNSIYLQMNSLKTEDTAVYYCHYVHYAGASTVLPAFGVDAWGQGTTVTVSS VL: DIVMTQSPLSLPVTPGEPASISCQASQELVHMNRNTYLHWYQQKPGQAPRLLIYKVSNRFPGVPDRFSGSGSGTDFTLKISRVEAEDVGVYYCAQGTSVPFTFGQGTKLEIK", "fold change of affinity, fold": 1}
{"binder": "dBBDu183H G65E / dBBDu072L (antibody, name in Kabat numbering, V domains shown, as m1, one VH change) VH: QVQLVESGGGLVQPGRSLRLSCAASGFTFSNAWMHWVRQAPGKGLEWVAQIKDKGNAYAAYYAPSVKERFTISRDDSKNSIYLQMNSLKTEDTAVYYCHYVHYASASTVLPAFGVDAWGQGTTVTVSS VL: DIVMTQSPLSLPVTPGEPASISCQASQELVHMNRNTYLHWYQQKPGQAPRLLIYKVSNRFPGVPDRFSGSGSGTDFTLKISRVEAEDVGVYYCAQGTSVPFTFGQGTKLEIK", "fold change of affinity, fold": 1.3}

# next binder below
Name the recorded fold change of affinity for dBBDu183H G65H / dBBDu072L (antibody, name in Kabat numbering, V domains shown, as m1, one VH change) VH: QVQLVESGGGLVQPGRSLRLSCAASGFTFSNAWMHWVRQAPGKGLEWVAQIKDKGNAYAAYYAPSVKHRFTISRDDSKNSIYLQMNSLKTEDTAVYYCHYVHYASASTVLPAFGVDAWGQGTTVTVSS VL: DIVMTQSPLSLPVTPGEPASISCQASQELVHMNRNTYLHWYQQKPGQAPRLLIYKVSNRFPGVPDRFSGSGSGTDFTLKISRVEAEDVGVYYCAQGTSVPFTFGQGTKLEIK .
1.2
